Recorded values, source PubChem BioAssay AID1259343.

assay: Mycobacterium tuberculosis growth inhibition, primary screen (AID 1259343); conditions: at 10 µM, active compounds read high
Out of some 6,200 compounds screened, about 2,900 (47%) were called active. So high a share suggests a set chosen from earlier hits. Some of the results follow.
Class key for inhibition values: bin 0 (below 20%), bin 1 (20% to below 50%), bin 2 (50% or more)

{"Molecule": "OCC#CCSc1ncnn1-c1ccccc1", "Class": "bin 0"}
{"Molecule": "O=c1c(O)c(-c2ccc(O)c(O)c2)oc2cc(O)cc(O)c12", "Class": "bin 1"}
{"Molecule": "COc1ccc(-c2coc3c(O)c(OC)ccc3c2=O)cc1", "Class": "bin 2"}
{"Molecule": "COc1ccc(-c2cnoc2-c2ccc(OC)cc2O)cc1", "Class": "bin 0"}
{"Molecule": "COc1ccc(OCCSCc2nc3sc4c(c3c(=O)[nH]2)CCC(C)C4)cc1 (configuration not stated)", "Class": "bin 2"}
{"Molecule": "COc1ccc(-c2coc3cc(O)cc(O)c3c2=O)cc1", "Class": "bin 2"}
{"Molecule": "CC1CCc2c(sc3nc(CN(Cc4ccccc4)CC(O)COCc4ccccc4)[nH]c(=O)c23)C1 (configuration not stated)", "Class": "bin 0"}
{"Molecule": "COc1ccc(-c2c(NC(=O)c3ccco3)oc3c(C)cccc3c2=O)cc1", "Class": "bin 0"}
{"Molecule": "COc1ccc2c(=O)c3c(=O)n(-c4ccccc4)c(C)nc3oc2c1", "Class": "bin 0"}
{"Molecule": "COc1ccc(OC)c(C(=O)c2coc3ccc(OC)cc23)c1", "Class": "bin 0"}
{"Molecule": "COc1cccc(OCCCOc2ccc([N+](=O)[O-])cc2)c1", "Class": "bin 1"}
